src = patent US8048862B2

# TARGET_OR_TEST_SYSTEM: NS3/NS4 complexes (Hepatitis C virus genotype 1a)
# TEST_NAME: NS3/NS4 inhibition activity (IC50)
# Format: biochemical
# TEST_PARAMETERS: Table 3, read-out: IC50
Would you mind telling me the reported IC50 of each entry?

Answered examples (2):
Lookup: Look up IC50 of Cc1ccccc1N[C@H]1CCCCC/C=C\[C@@H]2C[C@@]2(C(=O)NS(=O)(=O)C2(C)CC2)NC(=O)[C@@H]2C[C@@H](OC(=O)N3Cc4cccc(F)c4C3)CN2C1=O [Compound 1114] and report it.
Found: < 10 nM

Lookup: Look up IC50 of CCn1c(O[C@@H]2C[C@H]3C(=O)N[C@]4(C(=O)NS(=O)(=O)C5(C)CC5)C[C@H]4CCCCCCC[C@H](NC(=O)OC(C)(C)C)C(=O)N3C2)nc2ccccc21 [Compound 1080] and report it.
Found: < 10 nM

New cases:
Lookup: Look up IC50 of CC(C)n1c(O[C@@H]2C[C@H]3C(=O)N[C@]4(C(=O)NS(=O)(=O)N(C)C)C[C@H]4/C=C\CCCCC[C@H](NC(=O)OC(C)(C)C)C(=O)N3C2)nc2cc(F)ccc21 [Compound 1133] and report it.
Found: < 10 nM

###

# System: hepatitis C replicon
# TEST_NAME: hepatitis C replicon EC50
# Assay type: cell-based
# TEST_PARAMETERS: Hepatitis C virus; Table 2; hepatitis C replicon; read-out: EC50
ENDPOINT: EC50

Lookup: Look up EC50 of CC1(S(=O)(=O)NC(=O)[C@@]23C[C@H]2/C=C\CCCCC[C@H](Nc2ccccc2)C(=O)N2C[C@H](Oc4nc5ccccc5s4)C[C@H]2C(=O)N3)CC1 and report it.
Found: 10 to 75 nM

Lookup: Look up EC50 of O=C1N[C@]2(C(=O)O)C[C@H]2/C=C\CCCCC[C@H](Nc2ccc(-c3ccccc3)cc2)C(=O)N2C[C@H](Oc3nc4ccccc4s3)C[C@@H]12 and report it.
Found: > 500 nM

// moving on: another record for EC50
Lookup: Look up EC50 of CC(C)n1c(O[C@@H]2C[C@H]3C(=O)N[C@]4(C(=O)O)C[C@H]4/C=C\CCCCC[C@H](Nc4cc(F)cc(C(F)(F)F)c4)C(=O)N3C2)nc2ccccc21 and report it.
Found: < 10 nM

###

# TARGET_OR_TEST_SYSTEM: NS3/NS4 complexes (Hepatitis C virus genotype 1a, UniProt P27958)
# Sequence (P27958 1027-1657): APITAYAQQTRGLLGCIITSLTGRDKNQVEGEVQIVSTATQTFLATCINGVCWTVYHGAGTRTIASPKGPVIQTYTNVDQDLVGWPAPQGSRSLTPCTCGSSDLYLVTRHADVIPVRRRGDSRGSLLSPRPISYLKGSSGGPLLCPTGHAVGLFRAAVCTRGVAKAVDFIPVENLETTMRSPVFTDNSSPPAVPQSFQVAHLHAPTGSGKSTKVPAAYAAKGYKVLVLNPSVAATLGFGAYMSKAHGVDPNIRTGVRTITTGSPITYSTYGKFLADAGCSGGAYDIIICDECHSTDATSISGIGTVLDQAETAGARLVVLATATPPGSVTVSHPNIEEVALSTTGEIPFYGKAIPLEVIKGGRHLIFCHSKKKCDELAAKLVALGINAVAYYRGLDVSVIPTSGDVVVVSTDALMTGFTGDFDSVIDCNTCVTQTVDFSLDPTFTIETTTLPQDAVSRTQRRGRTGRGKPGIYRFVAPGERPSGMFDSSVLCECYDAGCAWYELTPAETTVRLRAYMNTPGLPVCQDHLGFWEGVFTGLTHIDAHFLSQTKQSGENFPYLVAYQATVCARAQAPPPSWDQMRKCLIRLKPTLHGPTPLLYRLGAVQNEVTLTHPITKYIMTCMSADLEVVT
# Sequence (P27958 1658-1711): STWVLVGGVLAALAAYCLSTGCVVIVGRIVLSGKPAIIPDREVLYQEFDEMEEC
# TEST_NAME: NS3/NS4 inhibition activity (IC50)
# Assay type: biochemical
# TEST_PARAMETERS: Table 3, read-out: IC50
ENDPOINT: IC50

Lookup: Look up IC50 of CC(C)(C)OC(=O)N[C@H]1CCCCC/C=C\[C@@H]2C[C@@]2(C(=O)NCCC(=O)NCc2ccccc2)NC(=O)[C@@H]2C[C@@H](OC(=O)N3Cc4cccc(F)c4C3)CN2C1=O and report it.
Found: > 100 nM

Lookup: Look up IC50 of CC(C)n1c(O[C@@H]2C[C@H]3C(=O)N[C@]4(C(=O)NS(=O)(=O)N(C)C)C[C@H]4/C=C\CCCCC[C@H](NC(=O)OC(C)(C)C)C(=O)N3C2)nc2cccc(F)c21 and report it.
Found: < 10 nM

Look at each compound and report its IC50.
1. CC(C)n1c(O[C@@H]2C[C@H]3C(=O)N[C@]4(C(=O)NS(=O)(=O)N(C)C)C[C@H]4/C=C\CCCCC[C@H](NC(=O)OC(C)(C)C)C(=O)N3C2)nc2ccccc21
2. CC(C)n1c(O[C@@H]2C[C@H]3C(=O)N[C@]4(C(=O)NS(=O)(=O)N(C)C)C[C@H]4/C=C\CCCCC[C@H](NC(=O)OC(C)(C)C)C(=O)N3C2)nc2ccc(F)cc21
3. CN(C)C(=O)c1cccc(N[C@H]2CCCCC/C=C\[C@@H]3C[C@@]3(C(=O)NS(=O)(=O)C3(C)CC3)NC(=O)[C@@H]3C[C@@H](OC(=O)N4Cc5cccc(F)c5C4)CN3C2=O)c1

Found:
< 10 nM
< 10 nM
< 10 nM
